A collection of compounds and their measured TGI
# System: A498 renal
# test: NCI tumour cell line growth inhibition, 48 h

# compound, TGI
rows = [
    ("CN1Cc2cc3cc4c(cc3nc2N(C)C1)OCCO4", "> 100 µM"),
    ("CC(CC[C@@H](O)C(C)(C)O)C1[C@@H](O)CC2(C)C3CC(O)C4C(C)(C)[C@@H](OC5OC(CO)C(O)C(O)C5O)CC[C@@]45C[C@@]35CC[C@]12C (stereo not given in full)", "> 10 µM"),
    ("O=c1[nH]nc(-c2ccccc2)n1Nc1ccccc1", "> 100 µM"),
    ("O=C1Nc2ccccc2C1=Nc1cccc2ncccc12", "> 100 µM"),
    ("COc1ccc(CCCCl)c(C2=NCCc3cc(OC)c(OC)cc32)c1", "> 100 µM"),
    ("C[C@]12C[C@H](CCCCCCNCCOC(=O)NCCCc3ccc(N(CCCl)CCCl)cc3)C3=C4CCC(=O)C=C4CCC3C1CC[C@@H]2O (stereo not given in full)", "3.56 µM"),
    ("NC(=O)Nc1ccc(S(=O)(=O)Nc2ccc(S(N)(=O)=O)cc2)cc1", "> 100 µM"),
    ("CC1(C)C2C=C(CCN3CCOCC3)CC1C2 (stereo not given)", "> 100 µM"),
    ("C[C@@]1(C(=O)O)CCC[C@]2(C)C1CC[C@@]13CC(=O)[C@@](CO)(CC[C@]12O)C3 (stereo not given in full)", "> 100 µM"),
    ("C/C(=N\\NC(=S)N1CC2CCC(CC2)C1)c1nccs1", "14.3 µM"),
]
